This collection of values is drawn from PubChem BioAssay (NCI).

- Assay notes: NCI Yeast Anticancer Drug Screen. Data for the mlh1 rad18 strain (AID 175)
- Experimental parameters: S. cerevisiae mlh1 rad18 strain growth inhibition; at 50.0 µM; hits give high values
This is part of a sample that, as a whole, favours compounds with a hit. Of some 79,000 tested, about 15% had one in any assay.
Observable: growth inhibition (%)

Molecule	Observable	Unit string	Observed
Cc1ccccc1N=C(N)Nc1ccccc1	growth inhibition	%	-6.7
CC(Br)CNC(=O)c1ccc([N+](=O)[O-])cc1 (configuration not stated)	growth inhibition	%	13.3
Cn1nc(-c2ccccc2)c([N+](=O)[O-])c1NCc1ccccc1	growth inhibition	%	1.15
Nc1c(-c2nc3ccccc3[nH]2)sc(=S)n1-c1ccccc1	growth inhibition	%	-17.9
CSc1cnn(-c2ccccc2)[n+]1[O-]	growth inhibition	%	-0.85
CC(=O)O[C@H]1CC[C@@]2(C)[C@@H](CC[C@@H]3[C@@H]2CC[C@]2(C)[C@@H](C(=O)CCC(F)(F)F)CC[C@@H]32)C1	growth inhibition	%	18.9
CCOC(=O)C(C#N)(Cc1ccccc1CC(C#N)(NC(C)=O)C(=O)OCC)NC(C)=O (configuration not stated)	growth inhibition	%	10.7
Nc1ncnc2c1nnn2C1C=CC(CP(=O)(O)O)C1 (configuration not stated)	growth inhibition	%	27.7
CCOC(=O)C(Cc1c[nH]c2ccccc12)NC(=O)C1(O)C(O)C2(CC)C=CCN3CCC4(c5cc(C6(C(=O)OC)CC7CC(CC)CN(CCc8c6[nH]c6ccccc86)C7)c(OC)cc5N(C)C14)C32 (configuration not stated)	growth inhibition	%	6.2
O=[N+]([O-])c1ccccc1C=NC12CC3CC(CC(C3)C1)C2	growth inhibition	%	3.45
BrC1C2=C(c3ccccc31)C(Br)c1ccccc12 (configuration not stated)	growth inhibition	%	1.7
COc1cc(OC)c2nc(C)c3c(c2c1)SCC3	growth inhibition	%	20
CC(=O)NC1=NC(=O)/C(=C/c2ccc(/C=C3/C(=O)N=C(NC(C)=O)N3C)cc2)N1C	growth inhibition	%	-27.2
CCOC(=O)C(=[N+]=[N-])C(=O)CN1C(=O)c2ccccc2C1=O	growth inhibition	%	-15.9
N#CCSCC(N)C(=O)O (configuration not stated)	growth inhibition	%	-4.8
COc1ccc(-c2c(N)nc(=S)[nH]c2C(=O)O)cc1	growth inhibition	%	-17.7
COc1ccc(Cc2c(O)ccc3ccccc23)cc1	growth inhibition	%	99.2
O=C1C=C(Nc2ccc(Cl)cc2Cl)c2ccccc2C1=O	growth inhibition	%	37.5
CC(NC(=O)NC(C)(C)C)c1ccccc1 (configuration not stated)	growth inhibition	%	4.1
O=C(NCc1ccc(Cl)c(Cl)c1)Nc1ccccc1F	growth inhibition	%	7.05
C(#Cc1ccccc1)SC1=C(c2ccccc2)S/C(=C(\SC#Cc2ccccc2)c2ccccc2)S1	growth inhibition	%	-30.8
CN(C)NC(=O)/C=C\C(=O)O	growth inhibition	%	-3.2

###

Catalogue of growth inhibition values
- Assay notes: NCI Yeast Anticancer Drug Screen. Data for the mec2-1 strain (AID 157)
- Experimental parameters: S. cerevisiae mec2-1 strain, at 50.0 µM, hits give high values
Compounds without any hit were thinned out: in the full panel of roughly 79,000, 15% have a hit.
Observable: growth inhibition (%)

Compound	Unit string	Observed
O=c1[nH]c2cc(Cl)ccc2nc1/C=C(\O)c1ccccc1O	%	-13.3
COc1cc(CO)c(CC(=O)NCCCc2ccccc2)cc1OC	%	-44.5
O=C(O)c1[nH]c(=O)[nH]c(=O)c1CN1CCCCC1	%	-21.6
Cc1cc[n+](C2=C([O-])C3=C(C(=O)C2=O)C2c4ccccc4C3c3ccccc32)c(C)c1	%	98.7
CCCCCOC(=O)c1cc2ccccc2cc1O	%	-8.05
CC(C)C1=CC23CCC4C(C)(C(=O)O)CCCC4(C)C2CC1C1C(=O)N(CCCN(C)C)C(=O)C13 (stereo not drawn)	%	99
CC1(C)COC(=O)OC1	%	11.5
COC1(OC)C2(Cl)CCC1(Cl)C(OC(C)=O)C2 (stereo not drawn)	%	-5
COc1ccc(N2C(=O)C3c4[nH]c5ccccc5c4C4CC(C)CC(C)C4C3C2=O)cc1 (stereo not drawn)	%	0.65
Cn1c(Cl)c(C=O)c(=O)n(C)c1=O	%	-4.7
CCOC(=O)[C@H]1CS[C@]2(c3ccco3)CC(=O)N12	%	8.1
O=C1N[C@H](Cc2cnc[nH]2)C(=O)N2CCC[C@@H]12	%	-3.55
COC(=O)C1CC2CC1C1C2SC(F)(F)C1(F)F (stereo not drawn)	%	-1.7
O=C(Nc1ccccn1)c1ccccc1	%	19.6
COc1ccccc1C(=O)NO	%	-27.2
CC(=O)c1ccc(C)c([N+](=O)[O-])c1	%	-5.65
Cc1ccc(N=Nc2c(N)ccc3ccccc23)cc1	%	87.2
CSC1=NC=C(C#N)C2=NC(c3c(F)cccc3Cl)NN12 (stereo not drawn)	%	7.65
COc1ccc(/C=N/Nc2c([N+](=O)[O-])cc(C)cc2[N+](=O)[O-])cc1	%	13.2
O=C1NC(=O)C(Cc2ccco2)N1 (stereo not drawn)	%	6.7
CCc1ccc(NS(=O)(=O)c2ccc3ccccc3c2)cc1	%	97.5
C[n+]1ccc(/C=C/c2ccc(O)c3ncccc23)c2cccc(O)c21	%	41.8
O=C(Nc1ccc(Cl)c(Cl)c1)Oc1ccccc1Cl	%	-29.6
CC(=O)OC1CCC2(C)C3C/C(=N\O)C4(C)C(C(C)OC(C)=O)CCC4C3CCC2(C)C1 (stereo not drawn)	%	96.7
CCOC(=O)C(Cc1c[nH]c2ccccc12)NCCN (stereo not drawn)	%	4.8
O=C(OC1CCC2(CC1)N=NC1(CCC(OC(=O)c3ccccc3)CC1)S2)c1ccccc1 (stereo not drawn)	%	18.3
O=[N+]([O-])c1c(O)c(O)c2ccccc2c1Nc1ccccc1	%	-5.8
C=Cc1c(C)c(C)c(C=C)c(C)c1C	%	6.65
Cc1ccc(N=C(N)NC#N)cc1	%	-46
Nc1nc2c(c(-c3ccccc3)n1)CN(CCCC(=O)O)C2=O	%	14.8
CCSc1ccc(N=[N+]([O-])c2ccc(SCC)c(Cl)c2)cc1Cl	%	10.8
CCN(CC)c1ccc(NC(=S)Nc2ccc(N(CC)CC)cc2)cc1	%	-0.5
Brc1cccc2c(SCCCCCCSc3c4ccccc4nc4c(Br)cccc34)c3ccccc3nc12	%	-16.1
CC(Cc1ccccc1)Nc1ncnc2c1ncn2C1OC(CO)CC1O (stereo not drawn)	%	2.35
[Zn+2].c1ccc(-c2c3nc(c(-c4ccccc4)c4[n-]c(c(-c5ccccc5)c5nc(c(-c6ccccc6)c6[n-]c2c2ccccc62)-c2ccccc2-5)c2ccccc42)-c2ccccc2-3)cc1	%	-36.4
Cc1cc(Br)cc(Cl)c1O	%	-7.9
c1ccc(C2Nc3ccccc3C3OCCCC23)cc1 (stereo not drawn)	%	-4.3
CCN(CC)CCNc1ccc2ncn3c4ccccc4c(=O)c1c23	%	8.85
CN(C)C(=O)CCOc1ccccc1	%	-12.6
O=Cc1cccc(/C=N/Nc2nnc(N/N=C/c3cccc(C=O)c3)c3ccccc23)c1	%	26.5
COc1ccc(C2SCC(=O)N2NC(=O)c2ccc(NC(C)=O)cc2)cc1 (stereo not drawn)	%	-49.5
CS(=O)(=O)c1ccc(N2CCCCC2)c([N+](=O)[O-])c1	%	6.05
CC(C)(C#N)NC(=O)NC(C)(C)C(N)=O	%	2.25
Nc1nn(CC(O)CO)c(=O)s1 (stereo not drawn)	%	15.7
C=C1c2c(cc3c(c2O)c(=O)c2ccccc2n3C)OC1(C)C	%	-36.6
Cc1ccc(-c2oc(-c3ccc(C)cc3)c3cc(C)c(C)cc23)cc1	%	13.5
FC1=C2C3CCC(C3)C2C1(F)F (stereo not drawn)	%	4.1
Nc1nc(Nc2ccccc2)c2ncn(C3OC(CO)C(O)C3O)c2n1 (stereo not drawn)	%	1.25
